Recorded z-score values for a group of compounds are listed next.
test: modulators of S6 phosphorylation in cells, primary screen, cell-based, A549, cytoblot, luminescence, serum-stimulated (AID 1158); conditions: A549 phospho-S6 cytoblot, 5 h, higher = more signal;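 also: serum-stimulated A549 lung adenocarcinoma cells; signal is phosphorylated S6 detected by cytoblot immunostaining with HRP secondary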
Give a plain numeric answer without units written out.

Study these solved cases before continuing.
compound	number
O=C1C=C[C@@H](O)[C@@H]2[C@@H]3C(=O)N(Cc4ccc5c(c4)OCO5)C(=O)[C@@H]3CC[C@@H]12	0.182
CC(CCC(=O)OC[C@H]1O[C@H](C#Cc2ccccc2)C=C[C@@H]1Oc1ccc(C)cc1)=NO[C@@H](C)c1cc(-c2c(C)cc(C)cc2C)no1	0.814
O=C1[C@H]2[C@H]3[C@H](O)[C@H](O)CC(=NO[C@@H]4O[C@H](CO)[C@@H](O)[C@H](O)[C@H]4O)[C@H]3CC[C@H]2C(=O)N1c1ccc(F)cc1F	-0.56
CC(C)(C)N1C(=O)[C@H]2[C@@H]3C(=CC[C@H]2C1=O)C(=O)[C@H]1O[C@H]1[C@H]3O	0.495
COC(=O)[C@H](CCSC)NC(=O)CC=C[C@@H](C)CO	0.81
CCCCOC(OCCCC)C(O)CSc1ccc2ccccc2c1 (stereo not drawn)	-0.455

[in] Note down z-score recorded for CC(CCN1CCCc2nc(C)c(C)cc21)=NO[C@@H](C)c1cn([C@H](CO)Cc2ccccc2)nn1
[out] 0.137

[in] Give recorded z-score. COc1ccc(OC[C@@H](CO)OC)cc1
[out] -0.51

====

test: osmotic lysis modulators in infected erythrocytes, primary screen, PSAC antagonist project, cell-based, P. falciparum Indochina, OD700, 3 h (AID 1156); details: higher = more signal, called active from +8 up or from −8 down
Let's look at some compounds and their measured z-score.
Number, no unit, nothing else.

compound	measurementName	number
O=C1[C@H]2[C@H]3[C@H](O)[C@H](O)CC(=NO[C@@H]4O[C@H](CO)[C@@H](O)[C@H](O)[C@H]4O)[C@@H]3CC[C@H]2C(=O)N1C[C@@H]1CCCO1	z-score	0.389
CCOC(=O)CCN1C(=O)[C@H]2[C@H]3[C@H](O)[C@H](O)CC(=NOCC=C(C)CCC=C(C)C)[C@@H]3CC[C@H]2C1=O	z-score	-0.931
CCOC(=O)[C@H](CC(C)C)NC(=O)CCC1CC(OC(=O)NCc2ccc3c(c2)OCO3)CC2(CCCC(COC(=O)NCCC(C)C)O2)O1 (some centres undefined)	z-score	-0.443
CC(C)(C)N1C(=O)[C@H]2[C@H]3[C@H](O)[C@H](O)CC(=NNC(=O)OCc4ccccc4)[C@H]3CC[C@H]2C1=O	z-score	0.374
CC(=O)OC[C@H]1O[C@H](CC=NOC(C)CN2CCCCc3nc(C)c(C)cc32)C=C[C@@H]1OC(C)=O (some centres undefined)	z-score	0.417
CCOC(=O)[C@H](Cc1ccccc1)NC(=O)CCC1CC(OC(=O)NCc2cccc3ccccc23)CC2(CCCC(COC(=O)NCc3ccc4c(c3)OCO4)O2)O1 (some centres undefined)	z-score	-0.336
C=CCOCC1CN2[C@@H](CC[C@@H](C)[C@@H]2c2ccc(Br)cc2)C(=O)O1 (some centres undefined)	z-score	-1.14
CC(CCN1CCCc2nc(C)c(C)cc21)=NOC[C@@H](O)COCc1ccco1	z-score	0.453
COC(=O)CC=C[C@@H](C)[C@@H](C=NOC[C@@H](O)[C@H]1O[C@@H]2OC(C)(C)O[C@@H]2[C@H]1O)OC	z-score	0.141
CC(C)=CCCC(C)=CCON=C1C[C@@H](O)[C@@H](O)[C@@H]2[C@@H]3C(=O)N(Cc4ccc5c(c4)OCO5)C(=O)[C@@H]3CC[C@H]12	z-score	1.64

[in] For the compound CO[C@@H]1COC(=O)[C@H](COCc2ccccc2)NC(=O)CC=C[C@@H](C)[C@H](OC)COC(=O)[C@@H](C)NC(=O)CC=C[C@H]1C , report z-score.
[out] 0.386

[in] Give reported z-score value for COC(=O)[C@H](C)NC(=O)CC=C[C@@H](C)[C@@H]1C=C[C@H](O)[C@@H](CO)O1
[out] -0.0002

[in] # return recorded z-score for entry CC(=O)OC[C@H]1O[C@H](C#CCC2CCCCC2)C=C[C@@H]1OC(C)=O
[out] 0.0473

[in] Give reported z-score value for COc1ccc(O[C@H]2C=C[C@@H](c3ccccc3)O[C@@H]2COC(=O)NCc2cccc3ccccc23)cc1
[out] -0.119

====

experiment: CREB reporter modulators without forskolin, primary screen, cell-based, PC12, CRE-LacZ reporter, unstimulated (AID 1145); conditions: no forskolin, luminescence, 4.5 h, higher = more signal, called active from +8 up or from −8 down
Rule: z-score under 0.09 gives FALSE, otherwise TRUE.

Example entries and their recorded answers appear below.
inputSmiles	className
CON=C1c2cc(OC)ccc2O[C@H](c2cccc(OC)c2)[C@H]1O	FALSE
CO[C@H]1COC(=O)CC=C[C@@H](C)COC(=O)[C@H]2CCCN2C(=O)CC=C[C@H]1C	FALSE
CO[C@@H](C1CCCCC1)[C@@H](C)[C@H](OCc1cccc(Br)c1)[C@@H](C)CO	TRUE
Cc1cc(C)c(-c2cc([C@H](C)ON=C[C@@H](C)[C@H](OCc3ccccc3)C(C)C)on2)c(C)c1	TRUE

Now for another entry.
[in] Decide: z-score of CC(=O)OC[C@H]1O[C@@H](ON=C(C)C)[C@H](OC(C)=O)[C@@H](OC(C)=O)[C@@H]1OC(C)=O >= 0.09?
[out] TRUE

====

test: small-molecule binders of probe aNOTCH2, primary screen, biochemical, small-molecule microarray, 635/667 nm fluorescence (AID 1121); conditions: higher = more signal;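 also: score merges feature fluorescence read at 667 nm with its signal to noise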
Label n if composite z-score falls below -0.08; label y in every other case.

// known answers, use as guide
compound	className
COC(=O)CC=C[C@@H](C)[C@@H](C=NOC(C)CN1CCCc2nc(C)c(C)cc21)NS(=O)(=O)c1ccc(C)cc1 (some centres not stated)	y
C=CC[C@@H]1C=C[C@H](ON=CC[C@@H]2C=C[C@H](OC(C)=O)[C@@H](COC(C)=O)O2)[C@@H](CO)O1	y

Note: attention shifts to another entry.
[in] Hi team, for CC(=O)OC[C@H]1O[C@H](CC=NOC(C)CN2CCCCc3nc(C)c(C)cc32)C=C[C@@H]1OC(C)=O (some centres not stated) , is the recorded composite z-score at or above -0.08?
[out] y

====

The following molecules are listed with their measured z-score values.
assay: adipocyte viability effects, profiling panel, cell-based, 3T3-L1 adipocytes, calcein-AM fluorescence, 48 h, basal (AID 1163); conditions: 3T3-L1 adipocytes viability, higher = more signal; also: test concentration not given here
Lab note: record the figure alone, no unit after it.

molecule	z-score
CC(CCN1CCc2nc(-c3ccccc3)c(-c3ccccc3)cc2C1)=NO[C@H](C)c1cn([C@H](CO)Cc2ccccc2)nn1	0.23

[in] Look up and state reported z-score for CCN(CC)CC(O)CN1CCCCc2nc(C)c(C)cc21 (configuration not stated)
[out] -0.054

[in] State its z-score for this molecule: Cc1cc(C)c(-c2cc([C@H](C)ON=C[C@@H](C)[C@H](OCc3ccccc3)C(C)C)on2)c(C)c1
[out] -0.0328

[in] Answer with reported z-score of COC(=O)[C@H](C)NC(=O)CCC1CC(OC(=O)NCc2ccc3c(c2)OCO3)CC2(CCCC(COC(=O)NCCc3ccc(Cl)cc3)O2)O1 (some centres not stated)
[out] 0.38

[in] Retrieve z-score measured for CC(CCN1CCCc2nc(C)c(C)cc21)=NO[C@H](C)c1cn([C@H](CO)Cc2ccccc2)nn1 and print it.
[out] 0.849

[in] Note z-score for the molecule shown: COC(=O)[C@H](C)NC(=O)CCC1CC(OC(=O)NCCc2ccc(F)cc2)CC2(CCCC(COC(=O)NCc3ccccc3)O2)O1 (some centres not stated)
[out] -0.0012

[in] State its z-score for this molecule: CCOC(=O)[C@H](CC(C)C)NC(=O)CCC1CC(OC(=O)NCCc2ccc(F)cc2)CC2(CCCC(COC(=O)NCCOC)O2)O1 (some centres not stated)
[out] -1.02

[in] Return z-score for the following molecule: CCOC(=O)[C@H](CC(C)C)NC(=O)CCC1CC(OC(=O)NCCc2ccc(F)cc2)CC2(CCCC(COC(=O)NCCCN3CCCC3=O)O2)O1 (some centres not stated)
[out] -1.03

[in] Fill in reported z-score for this entry: O=C(NN=C1C[C@@H](O)[C@@H](O)[C@@H]2[C@@H]3C(=O)N(Cc4ccccc4)C(=O)[C@@H]3CC[C@H]12)OCc1ccccc1
[out] 0.52

[in] Report z-score, nothing else, for this molecule: C#CCCCON=C1[C@H]2CCn3c(=O)n(Cc4cc5c(cc4Cl)OCO5)c(=O)n3[C@H]2[C@H](O)[C@@H]2O[C@H]12
[out] -0.237
